We begin with a simple list: items and their reported inhibition at 50 µM.
- system: LsrK (Salmonella typhimurium, UniProt Q8ZKQ6)
- Sequence (Q8ZKQ6 whole entry): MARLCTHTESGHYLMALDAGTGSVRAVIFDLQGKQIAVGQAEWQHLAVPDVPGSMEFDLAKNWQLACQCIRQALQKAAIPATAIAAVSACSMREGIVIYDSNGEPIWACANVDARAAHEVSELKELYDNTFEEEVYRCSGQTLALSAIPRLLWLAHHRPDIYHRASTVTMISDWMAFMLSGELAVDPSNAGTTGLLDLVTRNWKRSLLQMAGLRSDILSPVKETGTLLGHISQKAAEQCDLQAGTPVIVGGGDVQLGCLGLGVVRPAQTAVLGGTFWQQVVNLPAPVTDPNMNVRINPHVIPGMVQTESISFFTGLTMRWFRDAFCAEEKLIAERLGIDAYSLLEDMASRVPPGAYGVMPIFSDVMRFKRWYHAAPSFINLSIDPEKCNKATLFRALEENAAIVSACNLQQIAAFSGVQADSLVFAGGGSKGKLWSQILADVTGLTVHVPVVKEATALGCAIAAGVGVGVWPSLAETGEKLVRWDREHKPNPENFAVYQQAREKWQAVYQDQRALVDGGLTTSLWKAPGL
- measurement-notes: biochemical
- Format: biochemical, S. typhimurium
The answer is to be given in %; state only the numeric part.

Asked: Quickly give me recorded inhibition at 50 µM for CC(C)CCC[C@@H](C)[C@H]1CC[C@H]2[C@@H]3CC(=O)[C@H]4C[C@@H](O)CC[C@]4(C)[C@H]3CC[C@]12C
Given back: 1

====

- system: LsrK (Salmonella typhimurium)
- measurement-notes: biochemical
- Format: biochemical, S. typhimurium
We begin with a simple list: items and their reported inhibition at 50 µM.
Please answer using a numeric value trailed by its unit.

{"compound": "CCC[C@H](N[C@@H](C)C(=O)N1[C@H](C(=O)O)C[C@@H]2CCCC[C@@H]21)C(=O)OCC", "inhibition at 50 µM": "15%"}
{"compound": "COC(=O)Nc1nc2ccc(C(=O)c3ccccc3)cc2[nH]1", "inhibition at 50 µM": "1%"}

Continue with the compound presented below.
Asked: Param request: inhibition at 50 µM | system LsrK (Salmonella typhimurium) | item CC[C@H](/C=C/[C@@H](C)[C@H]1CC[C@H]2[C@@H]3CC=C4C[C@@H](O)CC[C@]4(C)[C@H]3CC[C@]12C)C(C)C
Given back: 1%

====

- system: LsrK (Salmonella typhimurium, UniProt Q8ZKQ6)
- measurement-notes: biochemical
- Assay type: biochemical, S. typhimurium
measurement-type: inhibition at 50 µM (%)
The answer is to be given in %; state only the numeric part.

Asked: Quickly give me recorded inhibition at 50 µM for Cc1coc2c1C(=O)C(=O)c1c-2ccc2c1CCCC2(C)C
Given back: 50

====

- system: LsrK (Salmonella typhimurium)
- measurement-notes: biochemical
- Type: biochemical, S. typhimurium
Structures can show the parent of a compound that is named as a salt.
measurement-type: inhibition at 50 µM (%)
The answer is to be given in %; state only the numeric part.

Below, 6 molecules whose answers are already recorded.
{"molecule": "CCOC(=O)C1=C(C)NC(C)=C(C(=O)OC)C1c1cccc([N+](=O)[O-])c1 (stereo not drawn)", "measurement-type": "inhibition at 50 µM", "unit-spec": "%", "readout-value": 1}
{"molecule": "c1cncc([C@@H]2CCCCN2)c1 [ANABASINE HYDROCHLORIDE]", "measurement-type": "inhibition at 50 µM", "unit-spec": "%", "readout-value": 2}
{"molecule": "COc1ccc2c(c1)OC[C@@H](Cc1ccc(OC)c(OC)c1)[C@@H]2O [3-DESHYDRO[…] ETHER]", "measurement-type": "inhibition at 50 µM", "unit-spec": "%", "readout-value": 3}
{"molecule": "CC(=O)Nc1ccc(S(=O)(=O)Nc2ccc([N+](=O)[O-])cc2)cc1", "measurement-type": "inhibition at 50 µM", "unit-spec": "%", "readout-value": 1}
{"molecule": "O=c1[nH]cnc2nc[nH]c12", "measurement-type": "inhibition at 50 µM", "unit-spec": "%", "readout-value": 2}
{"molecule": "CS(=O)(=O)c1ccc([C@@H](O)[C@@H](CF)NC(=O)C(Cl)Cl)cc1", "measurement-type": "inhibition at 50 µM", "unit-spec": "%", "readout-value": 2}

Asked: Quickly give me recorded inhibition at 50 µM for O=C(O)CCCCCCCCCCCC[C@@H]1C=CCC1 [CH[…]]
Given back: 156

Asked: Quickly give me recorded inhibition at 50 µM for NC(=O)c1ncn([C@@H]2O[C@H](CO)[C@@H](O)[C@H]2O)c1N
Given back: 0

Asked: Quickly give me recorded inhibition at 50 µM for O=C(NC(=O)c1c(F)cccc1F)Nc1cc(Cl)c(OC(F)(F)C(F)C(F)(F)F)cc1Cl (stereo not drawn)
Given back: 2

Values were extracted from paper PMC6627609.
